Below, each entry is listed alongside its reported minimal inhibitory concentration (MIC), EG 245.
# Test system: Enterococcus gallinarum 245
# EXPERIMENT_DESCRIPTION: MIC, standard broth micro-dilution assay, EG 245
# Format: cell-based
EXPERIMENTAL_ENDPOINT: minimal inhibitory concentration (MIC), EG 245

INSERT INTO assay_data (molecule, assay_value) VALUES
  ('CC(C)CCC(=O)N[C@H]1C(=O)N[C@@H](CC(N)=O)C(=O)N[C@H]2C(=O)N[C@H]3C(=O)NC(C(=O)N[C@H](C(=O)O)c4cc(O)cc(O)c4-c4cc3ccc4O)[C@H](OC3CC(C)(N)C(O)C(C)O3)c3ccc(c(Cl)c3)Oc3cc2cc(c3OC2OC(CO)C(O)C(O)C2OC2CC(C)(N)C(O)C(C)O2)Oc2ccc(cc2Cl)[C@H]1O (stereo partly shown) [Example 4]', 4),
  ('CC1OC(OC2c3ccc(c(Cl)c3)Oc3cc4cc(c3OC3OC(CO)C(O)C(O)C3OC3CC(C)(NCc5ccc(-c6ccccc6)cc5)C(O)C(C)O3)Oc3ccc(cc3Cl)C(O)C(NC(=O)C3CCCN3)C(=O)NC(CC(N)=O)C(=O)NC4C(=O)NC3C(=O)NC2C(=O)NC(C(=O)O)c2cc(O)cc(O)c2-c2cc3ccc2O)CC(C)(N)C1O (stereo not shown) [Example 12]', 0.25),
  ('CC1OC(OC2c3ccc(c(Cl)c3)Oc3cc4cc(c3OC3OC(CO)C(O)C(O)C3OC3CC(C)(NCc5ccc(-c6ccccc6)cc5)C(O)C(C)O3)Oc3ccc(cc3Cl)C(O)C(NC(=O)C(CCCCNC(=O)OC(C)(C)C)NC(=O)OC(C)(C)C)C(=O)NC(CC(N)=O)C(=O)NC4C(=O)NC3C(=O)NC2C(=O)NC(C(=O)O)c2cc(O)cc(O)c2-c2cc3ccc2O)CC(C)(N)C1O (stereo not shown) [Example 19]', 2),
  ('CC(C)CC(N)C(=O)NC1C(=O)NC(CC(N)=O)C(=O)NC2C(=O)NC3C(=O)NC(C(=O)NC(C(=O)O)c4cc(O)cc(O)c4-c4cc3ccc4O)C(OC3CC(C)(N)C(O)C(C)O3)c3ccc(c(Cl)c3)Oc3cc2cc(c3OC2OC(CO)C(O)C(O)C2O)Oc2ccc(cc2Cl)C1O (stereo not shown) [Example 37]', 0.5);
